- Tested on: HCT-15 colon
- run-description: NCI tumour cell line growth inhibition, 48 h
Listed here: items and their measured TGI.

Worked examples, 10 molecules total:
Nc1nc(Cl)c(N)c(NCC2(CO)CC2)n1    > 100 µM
O=CNNC(=O)Nc1cccc2ccccc12    > 100 µM
Cc1ccc(/C=N/n2c(-c3ccc(C)cc3)n[nH]c2=O)cc1    > 100 µM
[O-][N+](=Nc1ccccc1CO)c1ccccc1CO    > 100 µM
[N-]=[N+]=NC1OC(=O)C(Cl)=C1N=P(c1ccccc1)(c1ccccc1)c1ccccc1 (stereo not given)    > 10 µM
C=C(C(=O)O)[C@@H]1C[C@@H]2O[C@H]1[C@@H](O)[C@@H](C)CCCC(C)=CCC[C@@]2(C)O    > 100 µM
O=C(N/N=C/c1cc(Cl)cc(Cl)c1[O-])c1ccccc1O.O=C(N/N=C/c1cc(Cl)cc(Cl)c1[O-])c1ccccc1O.[Co+2]    13.8 µM
CCCCCCCCCCCCCCCCCC1=NC(C)(C)CN1CC(C)O (stereo not given)    3.95 µM
O=C(c1nc2ccc([N+](=O)[O-])cc2[nH]c1=O)C(O)c1ccc2c(c1)OCO2 (stereo not given)    > 100 µM
Cc1nc(C)c(N2CCN(S(=O)(=O)N(Cc3ccccc3)Cc3ccccc3)CC2)c(=O)[nH]1    > 100 µM

IN: Complete the entry with TGI for NC(=O)N/N=C(/CC1C(=O)Oc2ccccc21)c1ccccc1O (stereo not given)
OUT: > 100 µM

IN: Complete the entry with TGI for CS(=O)(=O)c1nc(-c2cc3c(c(S(C)(=O)=O)n2)CCCC3)cc2c1CCCCC2
OUT: > 100 µM

IN: Complete the entry with TGI for COc1cc2c(cc1OC)C(=O)N(c1ccc(O)cc1)C2=O
OUT: > 100 µM

IN: Complete the entry with TGI for CC(=N\N)/C(C)=N/N=C(C)/C(C)=N/N
OUT: > 100 µM

IN: Complete the entry with TGI for CCNc1cc(-c2cccc(OC(F)(F)F)c2)nc2ccc(N3CCCC3)cc12
OUT: 5.96 µM

IN: Complete the entry with TGI for Cc1ccccc1NC(=O)c1cc(-c2ccc([N+](=O)[O-])cc2)nc(=S)[nH]1
OUT: > 100 µM

IN: Complete the entry with TGI for CC(C)CCC[C@@H](C)[C@H]1CC[C@H]2[C@@H]3CC[C@H]4C[C@@H](CCC=C(c5cc(Cl)c(O)c(C(=O)O)c5)c5cc(Cl)c(O)c(C(=O)O)c5)CC[C@]4(C)[C@H]3CC[C@]12C
OUT: > 100 µM

IN: Complete the entry with TGI for N#CN/C(N)=N/C/N=C(\N)NC#N
OUT: 50.2 µM

IN: Complete the entry with TGI for C=C1C(=O)OC2C/C(C)=C/CC/C(C)=C/CCC3(COC(C)=O)OC3CC12 (stereo not given)
OUT: 10.7 µM

IN: Complete the entry with TGI for COc1ccc2nc(-c3ccccc3)cc(OCC(=O)O)c2c1
OUT: > 100 µM

* * *

- Test system: NCI-H226 lung
- run-description: NCI tumour cell line growth inhibition, 48 h
experimental-readout: TGI

Worked examples, 8 molecules total:
NC(N)=NC(N)=Nc1ccc(S(=O)(=O)O)cc1    > 100 µM
O=c1cc(CO)oc2c3c(cc(O)c12)OCC(COC1OC(CO)C(O)C(O)C1O)=CC3 (configuration not stated)    > 100 µM
C=CCNc1nc2c(s1)C(=O)c1ccccc1C2=O    40.1 µM
COc1ccc(-c2ccncc2)cc1C(N)=O    > 25 µM
CC1=C[C@H]2c3c([nH]c4ccccc34)C(c3c[nH]c4ccccc34)[C@H]2CC1 (some centres not stated)    27.7 µM
Cc1ccc(NC=O)c(-c2c(N)[nH]c(=S)[nH]c2=O)c1    > 100 µM
FC(F)(c1ccc2ncccc2c1)c1nnc2ccc(-c3ccncc3)nn12    > 100 µM
Cc1[nH]nc(C(F)(F)F)c1N=NN(C)C    6.36 µM

IN: Complete the entry with TGI for NC(=O)N/N=C(/CC1C(=O)Oc2ccccc21)c1ccccc1O (configuration not stated)
OUT: 82.5 µM

IN: Complete the entry with TGI for CS(=O)(=O)CCNCc1cc(-c2cc3c(Nc4ccc(OCc5cccc(F)c5)c(Cl)c4)ncnc3s2)cs1
OUT: > 25 µM

IN: Complete the entry with TGI for CS(=O)(=O)c1nc(-c2cc3c(c(S(C)(=O)=O)n2)CCCC3)cc2c1CCCCC2
OUT: > 100 µM

IN: Complete the entry with TGI for OCc1ccc(N2CCc3cccc(F)c3C2)cc1Cl
OUT: 0.0936 µM

IN: Complete the entry with TGI for CCNC(=O)COc1ccc(Br)cc1Br
OUT: > 100 µM

IN: Complete the entry with TGI for O=C(/C=C/C12c3ccccc3C(c3ccccc31)C1C(=O)NC(=O)C12)c1ccc(Cl)cc1Cl (configuration not stated)
OUT: 5.91 µM

IN: Complete the entry with TGI for CC1=CC(=O)CC2(C)CC[C@@H]3C[C@]12OC3(C)C (some centres not stated)
OUT: > 100 µM

IN: Complete the entry with TGI for COc1ccc(NC(=O)CSC2=C(Nc3cccc(Br)c3)C(=O)N(Cc3ccccc3)C2=O)cc1Cl
OUT: > 100 µM

IN: Complete the entry with TGI for CN(C)CCNc1ccc(CO)c2sc3ccc(O)cc3c(=O)c12
OUT: 8.48 µM
